target: ABL T315I (Homo sapiens, UniProt P00519, T315I); test: ABL Kinase Activity Assay (Elisa), ABL T315I; assay type: biochemical; details: ATP 100 μM, read-out: Abl(T315I) Enzymetic assay (Elisa) % inhibition
Item-by-item account of inhibition at 10 µM

Before answering, review these 2 worked examples.
| SMILES STRING | inhibition at 10 µM |
| --- | --- |
| Cc1cnc(CNc2ncc3c(n2)-c2cccnc2Nc2cnccc2-3)cn1 | < 50% |
| Fc1ccc(CNc2ncc3c(n2)-c2cccnc2Nc2ccccc2-3)c(F)c1 | < 50% |

Returns the measured inhibition at 10 µM for the input molecule. Input: "COc1cccc(CNc2ncc3c(n2)-c2cccnc2Nc2cnccc2-3)c1"
80 to 100%
